# Tested on: A549/ATCC NSCLC
# assay_remarks: NCI-60 one-dose screen, 48 h
# experimental_setup: 10 µM unless noted
Compounds without any hit were thinned out: in the full panel of roughly 83,000, 20% have a hit. Calls of active or inactive are those of the source. The calls were made as follows: active = growth percent below 10; inactive = the rest.
Please answer using one outcome listed in 1 (yes) for active, 0 (no) for inactive

Here's what some known entries look like.
{"compound": "COc1ccccc1/C=C/C1=C(C)CCC(c2ccccc2OC)C1C (centres undefined)", "assigned_category": "0 (no)"}
{"compound": "Cn1cc(-c2ccc3c(Nc4cccc(NC(=O)Nc5cccc(F)c5)c4)ncnc3c2)cn1", "assigned_category": "0 (no)"}
{"compound": "COc1ccccc1-c1nc2ccc3[nH]ncc3c2c2c1CCCC2", "assigned_category": "0 (no)"}
{"compound": "COC(=O)c1c(C)nc(C)c2c1C(=O)C(Br)=C(NCCN1CCOCC1)C2=O", "assigned_category": "0 (no)"}
{"compound": "O=C(OCC(O)C(=O)NC12CC3CC(CC(C3)C1)C2)c1cccc(Br)c1 (centres undefined)", "assigned_category": "0 (no)"}

Hi team, can someone confirm the assay call for COc1ccc2c(O)cc3c(c2c1)[C@H](CCl)CN3C(=O)c1cc2cc(NC(=O)CCN3CCOCC3)ccc2[se]1 ?
1 (yes)

Hi team, can someone confirm the assay call for COc1cc2c(c(OC)c1OC)CCC(c1cccc(NC(=O)c3cccc(Cl)c3)c1)O2 (centres undefined) ?
0 (no)

Hi team, can someone confirm the assay call for O=C1C(c2c(O)[nH]c3ncccc23)=Nc2ccccc21 ?
0 (no)

Hi team, can someone confirm the assay call for C=C(C)Cn1c(SCC(=O)c2cccs2)nc2sc3c(c2c1=O)CCCC3 ?
0 (no)

These entries and their values trace back to PubChem BioAssay (NCI).
